method_summary: RAM pathway blockade in budding yeast – dse1pr::URA3 reporter, 5-FOA selection, pilot screen (AID 869);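 further: 0% = DMSO wells with no growth and 100% = 10 µM 1-NA-PP1 with full growth; RAM network block rescues cells from 5-FOA so hits raise OD615 growth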
experimental_parameters: S. cerevisiae dse1pr::URA3 5-FOA growth, OD615, 2 d; at 10 µM; hits give high values; strain carries analog-sensitive mutant Cbk1 kinase
quantity_measured: inhibition (%)

# compound, number
data = [
    ("CN(C)CCCN1C(=O)CSC1c1ccccc1 (stereo unspecified)", 1.47),
    ("Cc1ccc(C)n1-c1ccc(-n2cnnn2)cc1", 1.65),
    ("COc1cccc(-c2nc3n(n2)C(c2ccccc2Cl)C(C(N)=O)=C(C)N3)c1 (stereo unspecified)", 0.735),
    ("O=C(c1sc2ccccc2c1Cl)N(Cc1cccs1)C1CCS(=O)(=O)C1 (stereo unspecified)", 0.395),
    ("CC(=O)NC(C)C(=O)OCC(=O)Nc1ccc(Br)cc1 (stereo unspecified)", 2.33),
    ("COc1ccc(C(=O)c2ccc(OC)c(N)c2)cc1N", 2.53),
]

====

method_summary: H69AR cell proliferation blockers – human, duplicate replicates, primary screen (AID 580);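 further: 100% = mean luminescence of untreated wells and 0% = no signal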
experimental_parameters: H69AR lung tumor cells viability, ATP luminescence, 72 h; at 10 µM; hits give low values

# molecule, unit_descriptor, viability
measured = [
    ("CCn1cc(SCC(=O)Nc2cc(C)on2)c2ccccc21", "%", 84),
    ("Cc1cc(N2CCOCC2)nc2ccc(NC(=O)C3CCC(C)CC3)cc12 (stereo unspecified)", "%", 76.3),
    ("Cc1ccc(C)c(N2C(=O)CN=C2Nc2ccccc2Cl)c1", "%", 100),
    ("COc1ccccc1NC(=O)N1CCN(c2cccc(C(F)(F)F)c2)CC1", "%", 95.2),
    ("COc1ccc(C(=O)NCC(=O)NC2=NCCS2)cc1", "%", 102),
    ("O=C(Nc1ccc(N2CCCC2)cc1)c1ccc(Br)o1", "%", 101),
    ("COc1ccc(C2CC(c3cccs3)n3nc(N)nc3N2)cc1 (stereo unspecified)", "%", 91.4),
    ("CCN(CC)C(=O)COC(=O)c1ccc(O)cc1", "%", 91.2),
    ("COC(=O)Cn1c(=O)c2c(nc3n2CC(C)CN3c2ccc(C)c(C)c2)n(C)c1=O (stereo unspecified)", "%", 85.5),
    ("Cc1cc(N)n2nc(-c3ccccc3)cc2n1", "%", 80.1),
    ("Cc1ccc(-n2nc(C)c3cc(C(=O)O)sc32)cc1", "%", 87.2),
    ("CCSc1oc(-c2ccco2)nc1S(=O)(=O)c1ccccc1", "%", 89.3),
    ("Cn1ccnc1SCC(=O)Nc1ccc2ccccc2c1", "%", 105),
    ("CC1CCc2nn(CC(=O)NCCN3CCOCC3)cc2C1 (stereo unspecified)", "%", 89.4),
    ("COc1ccccc1CNC(=O)C1CCCN(S(=O)(=O)c2cccc3cccnc23)C1 (stereo unspecified)", "%", 92),
    ("O=C(NCCc1cccc(Cl)c1)c1cccnc1", "%", 103),
    ("COc1ccc(-c2[nH]c(-c3cccc(OC)c3)nc2SCC(=O)NCc2ccco2)cc1", "%", 71),
    ("CC(=O)Nc1cc(N2C(=O)CCC2=O)ccc1Cl", "%", 103),
    ("COc1ccc(C2CC(=O)C(C=NCCCN3CCOCC3)=C(O)C2)cc1 (stereo unspecified)", "%", 99.3),
    ("COC(=O)CCC(=O)Nc1ccc(OC)cc1", "%", 85.1),
    ("CC(C)C(C(=O)Nc1ccc2c(c1)OCCO2)N1C(=O)c2ccccc2C1=O (stereo unspecified)", "%", 104),
    ("CC(=O)c1cccc(NC(=O)CCNS(=O)(=O)c2cccc3nsnc23)c1", "%", 106),
    ("CCCCN(C)Cc1c(O)ccc2c(-c3ccccc3)cc(=O)oc12", "%", 96.7),
    ("COc1ccc(OCCSc2nc3ccccc3n2CC(=O)O)cc1", "%", 97.8),
    ("C=CCn1c(SCc2cccc(C#N)c2)nnc1-c1ccccc1O", "%", 92.4),
    ("COc1ccc(NC(=O)Nc2ccc(N3CCCC3=O)cc2)cc1OC", "%", 104),
    ("CCn1c(=O)cc(OCC(=O)Nc2nc(C)cs2)c2ccccc21", "%", 94.8),
    ("COc1cccc(N2CCN(c3c4c(nc5ncnn35)CCC4)CC2)c1", "%", 86.9),
    ("CCCCOC(=O)Nc1nc2ccc(OC)cc2s1", "%", 99.7),
    ("CCOC(=O)C(C(=O)OCC)C(C)C#CCN1CCCCC1 (stereo unspecified)", "%", 90.4),
    ("Oc1ccc(Cl)cc1-c1cc(-c2ccccc2)n[nH]1", "%", 6.37),
    ("O=C1NC(=O)C(CC(=O)N(Cc2ccco2)C2(C(=O)NC3CCCC3)CCCCC2)N1 (stereo unspecified)", "%", 92.6),
    ("CC1=C(C(=O)OC2CCCCCC2)C(c2ccc(C)o2)C2=C(CCCC2=O)N1 (stereo unspecified)", "%", 97.2),
    ("Oc1ccc(-c2n[nH]c(=S)n2Cc2ccccc2)cc1", "%", 105),
    ("COc1cccc(CNC(=O)CCS(=O)(=O)c2cccc3nsnc23)c1", "%", 89.6),
    ("CCOc1ccccc1C1CC(c2ccc(Br)cc2)Nc2nc(N)nn21 (stereo unspecified)", "%", 25.7),
    ("Cc1ccc(S(=O)(=O)N(CC(=O)N2CCC(C(N)=O)CC2)Cc2ccc(F)cc2)cc1", "%", 100),
    ("Cc1ccc(N(C(=O)C2CCC(=O)N2)C2(C(=O)NC3CCCCC3)CCCCC2)cc1 (stereo unspecified)", "%", 98.4),
    ("COc1cc(C2NC(=O)NC(C)=C2C(=O)OCC2CCCO2)ccc1O (stereo unspecified)", "%", 103),
    ("COc1ccc(OC)c(NC(=O)c2nnn(Cc3ccc(Br)cc3F)c2N)c1", "%", 75.7),
    ("O=C(OCCN=C1NS(=O)(=O)c2ccccc21)C1CC(=O)N(c2ccc(Cl)cc2)C1 (stereo unspecified)", "%", 93.2),
    ("O=C(CS(=O)(=O)c1cn(Cc2ccc(F)cc2)c2ccccc12)N1CCCCC1", "%", 99.9),
    ("Cc1ccc(-n2c3c(cc(C(=O)NC4CCSC4=O)c2=O)C(=O)CC(C)(C)C3)cc1 (stereo unspecified)", "%", 85.3),
    ("CCOC(=O)Cn1c(=O)c(-c2ccccc2N)nc2ccccc21", "%", 75.6),
    ("Cc1ccc(-n2ncc3c(N4CCCC(C)C4)ncnc32)c(C)c1 (stereo unspecified)", "%", 61.6),
    ("COc1cccc(NC(=O)c2nnn(Cc3ccc(Br)cc3F)c2N)c1", "%", 72),
]
